# target_desc: ScLsb4
# method_summary: SPOT peptide array binding signal intensity (averaged, normalized) (arbitrary units (background-subtracted, floor 0; scale differs between SH3 domains)); higher = stronger binding of the SH3 domain to the peptide
attribute_measured: SPOT peptide array binding signal intensity
Give the figure only, with no unit attached.

For this binder ( QQEQNTPPLPPKPKS ), measured SPOT peptide array binding signal intensity is 67

GET /value?item= RSVKRPRRAPRPVVS &field=SPOT peptide array binding signal intensity returns 192

The recorded SPOT peptide array binding signal intensity for entry LLRRTIPKRPFYHVL equals 18.5

The measured SPOT peptide array binding signal intensity associated with HRRRRVFSIPSLKSI reads 44.5

Query APPLPPTAPPPPSLP yields SPOT peptide array binding signal intensity of 4
